Parameter fluorescence lifetime: see the listing below.
- Assay Method Text: solvent given as SMILES
- Condition Summary: in CC#N
Reported Metric: fluorescence lifetime (ns)

> print(dat)
                                    compound  measurement.units  observed.measurement
 1  C(=C\c1nc2ccccc2[nH]1)/c1ccc(/C=C/c2nc3ccccc3[nH]2)cc1                 ns                  1.12
 2  c1cc2c3c(cccc3c1)C(N1CCOCCNCCOCCOCC1)=N2                 ns                  0.52
 3  c1ccc(-c2cc(-c3ccc4ccc5cccc6ccc3c4c56)ccn2)nc1                 ns                   4.7
 4  C(=C\c1ccnc2ccccc12)/c1c2ccccc2cc2ccccc12                 ns                 0.088
 5             Cc1cc2c(o1)c(C)cc1ccc(=O)oc12                 ns                  0.02
 6  Cc1nn(-c2ccccc2)c(C2=NN(c3ccc(Br)cc3)[C@@H](c3ccccc3)[C@@H]2c2ccccc2)c1C#N                 ns                  5.05
 7  CCNc1cc2oc3c/c(=[NH+]\CC)c(C)cc-3c(-c3ccccc3C(=O)OCC)c2cc1C                 ns                  4.18
 8  CSc1ccc2c(c1)N(CCCN1CCN(C)CN1C)c1ccccc1S2                 ns                  1.03
 9  COC(=O)C(NC(=O)OC(C)(C)C)c1ccc2oc(-c3cc(OC)ccc3OC)nc2c1 (stereo not given)                 ns                  2.03
10      Cc1ccc2nc3c(=O)n(C)c(=O)nc-3n(C)c2c1                 ns                   4.9
